- measured_on: KDM4C (Homo sapiens, UniProt Q9H3R0)
- Construct: Full length of KDM5B and KDM4C protein were purchased from Active Motif; purchased Active Motif 31858
- Sequence (Q9H3R0 whole entry): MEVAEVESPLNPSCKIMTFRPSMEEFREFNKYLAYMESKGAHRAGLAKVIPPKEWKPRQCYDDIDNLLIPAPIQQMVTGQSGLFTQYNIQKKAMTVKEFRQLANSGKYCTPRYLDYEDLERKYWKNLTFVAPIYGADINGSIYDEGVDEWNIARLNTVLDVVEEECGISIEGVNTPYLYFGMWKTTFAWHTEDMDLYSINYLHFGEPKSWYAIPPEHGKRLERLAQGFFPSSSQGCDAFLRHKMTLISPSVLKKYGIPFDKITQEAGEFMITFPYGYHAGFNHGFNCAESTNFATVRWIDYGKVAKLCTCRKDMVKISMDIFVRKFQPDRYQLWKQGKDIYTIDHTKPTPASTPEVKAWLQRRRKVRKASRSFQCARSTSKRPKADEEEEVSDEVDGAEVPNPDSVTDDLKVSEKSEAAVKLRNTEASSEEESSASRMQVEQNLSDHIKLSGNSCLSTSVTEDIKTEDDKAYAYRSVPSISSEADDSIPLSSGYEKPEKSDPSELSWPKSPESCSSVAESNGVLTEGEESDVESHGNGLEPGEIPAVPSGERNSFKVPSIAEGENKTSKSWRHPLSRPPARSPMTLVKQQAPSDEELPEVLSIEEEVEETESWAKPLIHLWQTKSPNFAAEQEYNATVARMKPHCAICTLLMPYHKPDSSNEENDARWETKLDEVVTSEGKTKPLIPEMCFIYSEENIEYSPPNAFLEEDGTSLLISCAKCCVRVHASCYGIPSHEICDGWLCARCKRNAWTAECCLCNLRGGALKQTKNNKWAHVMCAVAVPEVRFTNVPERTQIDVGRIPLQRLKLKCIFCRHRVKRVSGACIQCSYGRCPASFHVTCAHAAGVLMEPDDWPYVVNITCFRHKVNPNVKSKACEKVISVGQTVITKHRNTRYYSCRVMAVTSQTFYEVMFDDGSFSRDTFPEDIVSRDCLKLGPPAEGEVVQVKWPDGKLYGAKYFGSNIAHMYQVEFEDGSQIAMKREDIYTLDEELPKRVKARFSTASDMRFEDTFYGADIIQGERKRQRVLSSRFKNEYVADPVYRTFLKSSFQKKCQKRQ
- test_summary: KDM4C AlphaScreen assay
- Format: biochemical
- details: AlphaScreen; full length KDM4C 0.2 nM; biotinylated H3K9Me3 peptide 3 nM; 30 minutes at room temperature
observed_property: IC50 (nM)
Answer in nM, number only, no unit symbol.

Name the reported IC50 value associated with the compound Oc1nc(-c2cncs2)ncc1C1CC1
14100

* * *

- measured_on: KDM5B (Homo sapiens, UniProt Q9UGL1)
- Construct: Full length of KDM5B and KDM4C protein were purchased from Active Motif; purchased Active Motif 31832
- Sequence (Q9UGL1 whole entry): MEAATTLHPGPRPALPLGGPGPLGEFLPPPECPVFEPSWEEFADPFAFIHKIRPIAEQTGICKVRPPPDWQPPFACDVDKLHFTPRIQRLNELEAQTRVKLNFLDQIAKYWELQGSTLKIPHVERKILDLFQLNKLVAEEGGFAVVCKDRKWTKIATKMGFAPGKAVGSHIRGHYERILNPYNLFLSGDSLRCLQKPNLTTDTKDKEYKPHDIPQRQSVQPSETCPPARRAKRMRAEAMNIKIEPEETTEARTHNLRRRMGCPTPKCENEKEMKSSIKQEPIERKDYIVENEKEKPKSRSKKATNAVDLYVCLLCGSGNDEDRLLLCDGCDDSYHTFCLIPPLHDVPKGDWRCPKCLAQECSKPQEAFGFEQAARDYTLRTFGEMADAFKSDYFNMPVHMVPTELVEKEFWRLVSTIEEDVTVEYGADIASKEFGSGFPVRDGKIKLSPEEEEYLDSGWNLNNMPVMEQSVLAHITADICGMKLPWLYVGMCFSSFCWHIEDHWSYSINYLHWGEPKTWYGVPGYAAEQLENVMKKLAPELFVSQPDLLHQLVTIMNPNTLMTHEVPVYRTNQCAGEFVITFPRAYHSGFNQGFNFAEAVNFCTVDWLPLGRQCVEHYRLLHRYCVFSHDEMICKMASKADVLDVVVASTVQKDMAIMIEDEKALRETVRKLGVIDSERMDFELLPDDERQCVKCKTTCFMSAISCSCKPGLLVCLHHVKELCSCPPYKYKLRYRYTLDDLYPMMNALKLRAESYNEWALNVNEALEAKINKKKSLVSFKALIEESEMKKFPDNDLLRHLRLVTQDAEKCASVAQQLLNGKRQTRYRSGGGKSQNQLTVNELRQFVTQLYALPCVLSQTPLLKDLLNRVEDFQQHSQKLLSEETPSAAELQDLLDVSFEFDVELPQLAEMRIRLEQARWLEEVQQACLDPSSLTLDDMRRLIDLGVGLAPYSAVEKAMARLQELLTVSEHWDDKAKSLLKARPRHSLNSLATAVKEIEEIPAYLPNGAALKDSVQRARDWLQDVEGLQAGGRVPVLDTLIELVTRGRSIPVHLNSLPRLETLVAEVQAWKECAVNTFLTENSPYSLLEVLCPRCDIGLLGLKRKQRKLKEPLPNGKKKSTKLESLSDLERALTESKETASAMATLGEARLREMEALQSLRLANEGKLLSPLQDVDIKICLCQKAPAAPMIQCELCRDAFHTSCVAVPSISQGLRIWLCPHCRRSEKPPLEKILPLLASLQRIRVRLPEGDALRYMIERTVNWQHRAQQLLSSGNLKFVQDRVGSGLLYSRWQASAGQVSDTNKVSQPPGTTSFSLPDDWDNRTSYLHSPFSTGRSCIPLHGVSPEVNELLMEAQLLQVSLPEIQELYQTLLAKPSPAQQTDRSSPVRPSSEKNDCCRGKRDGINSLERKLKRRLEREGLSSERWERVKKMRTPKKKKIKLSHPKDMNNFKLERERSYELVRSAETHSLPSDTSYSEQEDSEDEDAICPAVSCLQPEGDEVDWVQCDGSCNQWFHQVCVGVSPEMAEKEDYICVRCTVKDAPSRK
- test_summary: biochemical
Listing of recorded log10 IC50 by entry.
Heads up, the numbers here are log10 of IC50 in nM units.

CC(C)c1c(O)nc(-n2ccnc2)nc1-c1cccnc1 [Example 70] : 1.34
CC(C)c1c(O)nc(-n2ccnc2)nc1OCCC1CCN(C(=O)CCO)CC1 [Example 14] : 1.51
CC(C)c1c(O)nc(-n2ccnc2)nc1-c1cnn(CC(=O)N2CCOCC2)c1 [Example 117] : 1.49
CC(C)c1c(O)nc(-n2ccnc2)nc1-c1cccc(CNS(C)(=O)=O)c1 [Example 76] : 1.46
CC(C)c1c(O)nc(-n2ccnc2)nc1-c1cnn(CC(=O)NCC(N)=O)c1 [Example 114] : 1.41
Cc1nc(-c2cncs2)nc(O)c1C(C)C [Example 155] : 1.81
CC(C)c1c(O)nc(-n2ccnc2)nc1-c1cnn(CCN2CCOCC2)c1 [Example 68] : 1.32
CC(C)c1c(O)nc(-n2ccnc2)nc1-c1cccc(CO)c1 [Example 77] : 1.58
CC(C)c1c(O)nc(-c2cncs2)nc1-c1cnn(C)c1 [Example 30] : 2.54
CC(C)c1c(O)nc(-c2cncs2)nc1OCc1ccccn1 [Example 145] : 2.21

Name the reported log10 IC50 value associated with the compound CC(C)c1c(O)nc(-c2cncs2)nc1-c1cnn(C(C)C)c1 [Example 152]
2.18

Name the reported log10 IC50 value associated with the compound CC(C)c1c(O)nc(-n2ccnc2)nc1OCCC1CCN(C)CC1 [Example 11]
0.85

Name the reported log10 IC50 value associated with the compound CC(C)c1c(O)nc(-n2ccnc2)nc1-c1cnn(Cc2ccccc2)c1 [Example 63]
1.26

Name the reported log10 IC50 value associated with the compound CC(C)c1c(O)nc(-n2ccnc2)nc1-c1ccc(C(=O)NCC(=O)O)cc1 [Example 85]
2.38

Name the reported log10 IC50 value associated with the compound CNC(=O)c1cccc(-c2nc(-n3ccnc3)nc(O)c2C(C)C)c1 [Example 57]
1.20

Name the reported log10 IC50 value associated with the compound CC(C)c1c(O)nc(-n2ccnc2)nc1-c1cnn(CC(=O)NCCO)c1 [Example 104]
1.18

Name the reported log10 IC50 value associated with the compound CC(C)c1c(O)nc(-n2ccnc2)nc1-c1cnn(CC(=O)NCCN2CCC(F)(F)CC2)c1 [Example 96]
0.85

Name the reported log10 IC50 value associated with the compound Cc1nc(-n2cncc2CO)nc(O)c1C(C)C [Example 24a]
1.65

Name the reported log10 IC50 value associated with the compound CC(C)c1c(O)nc(-c2cncs2)nc1OCc1cncnc1 [Example 143]
2.14

Name the reported log10 IC50 value associated with the compound COC(=O)COc1nc(-n2ccnc2)nc(O)c1C(C)C [Example 133]
1.48

Name the reported log10 IC50 value associated with the compound CC(C)c1c(O)nc(-n2ccnc2)nc1-c1cnn(CC(=O)NCCc2ccccn2)c1 [Example 105]
1.23
